- Protocol: AUC (0 to infinity) in BALB/c mouse at 1 mg/kg, iv measured upto 24 hrs by LC-MS/MS analysis
- Type: ADME, organism-based
- Study Conditions: in vivo
Quantity Measured: AUC(0-inf) (ng·h/mL)

>  <Smiles Code>
CC(C)N1CCCN(c2ccc(C(=O)n3nc(-c4ccccn4)nc3N)c3ccccc23)CC1

>  <Quantitative Result>
13.3

$$$$

---

- Protocol: Selectivity index, ratio of IC50 for trypsin (unknown origin) to IC50 for FXIIa (unknown origin)

>  <Smiles Code>
CC(C)N1CCN(c2ccc(C(=O)n3nc(-c4ccccn4)nc3N)c3ccccc23)CC1

>  <Ratio IC50>
> 670

$$$$
>  <Smiles Code>
Nc1nc(-c2ccccn2)nn1C(=O)c1ccc(NC(=O)c2ccccc2)cc1

>  <Ratio IC50>
> 30

$$$$
>  <Smiles Code>
Nc1nc(-c2ccccn2)nn1C(=O)c1cccc2ccccc12

>  <Ratio IC50>
> 140

$$$$
>  <Smiles Code>
Nc1nc(-c2ccccn2)nn1C(=O)c1ccc(N2CCN(C3COC3)CC2)c2ccccc12

>  <Ratio IC50>
> 640

$$$$
>  <Smiles Code>
CC(C)N1CCCN(c2ccc(C(=O)n3nc(-c4ccccn4)nc3N)c3ccccc23)CC1

>  <Ratio IC50>
> 1190

$$$$
